Reference source: the supplement of paper PMC6607015

System: HeLa MZ
Test: whole-cell filipin (free cholesterol) integrated intensity, Z-score; higher = more cholesterol staining
Settings: compound concentration in added solution (µM; 5 µl added to 20 µl cells): 10; 18 h
Each entry below carries its reported whole-cell filipin (z-score).

| compound | whole-cell filipin (z-score) |
| --- | --- |
| COc1ccc(CC2c3cc(OC)c(OC)cc3CC[N+]2(C)CCC(=O)OCCCCCOC(=O)CC[N+]2(C)CCc3cc(OC)c(OC)cc3C2Cc2ccc(OC)c(OC)c2)cc1OC (stereo not drawn) [Atracurium besylate] | -0.584 |
| CCCCC[C@H](O)/C=C/[C@H]1[C@H](O)CC(=O)[C@@H]1CCCCCCC(=O)O [Alprostadil] | -0.324 |
| CCC(C)(C)C(=O)O[C@H]1C[C@@H](C)C=C2C=C[C@H](C)[C@H](CC[C@@H]3C[C@@H](O)CC(=O)O3)[C@H]21 [Simvastatin] | -0.319 |
